# target: Fibroblast growth factor receptor 3 (Homo sapiens) (UniProt P22607)
# Sequence (P22607 23-806 limits assumed): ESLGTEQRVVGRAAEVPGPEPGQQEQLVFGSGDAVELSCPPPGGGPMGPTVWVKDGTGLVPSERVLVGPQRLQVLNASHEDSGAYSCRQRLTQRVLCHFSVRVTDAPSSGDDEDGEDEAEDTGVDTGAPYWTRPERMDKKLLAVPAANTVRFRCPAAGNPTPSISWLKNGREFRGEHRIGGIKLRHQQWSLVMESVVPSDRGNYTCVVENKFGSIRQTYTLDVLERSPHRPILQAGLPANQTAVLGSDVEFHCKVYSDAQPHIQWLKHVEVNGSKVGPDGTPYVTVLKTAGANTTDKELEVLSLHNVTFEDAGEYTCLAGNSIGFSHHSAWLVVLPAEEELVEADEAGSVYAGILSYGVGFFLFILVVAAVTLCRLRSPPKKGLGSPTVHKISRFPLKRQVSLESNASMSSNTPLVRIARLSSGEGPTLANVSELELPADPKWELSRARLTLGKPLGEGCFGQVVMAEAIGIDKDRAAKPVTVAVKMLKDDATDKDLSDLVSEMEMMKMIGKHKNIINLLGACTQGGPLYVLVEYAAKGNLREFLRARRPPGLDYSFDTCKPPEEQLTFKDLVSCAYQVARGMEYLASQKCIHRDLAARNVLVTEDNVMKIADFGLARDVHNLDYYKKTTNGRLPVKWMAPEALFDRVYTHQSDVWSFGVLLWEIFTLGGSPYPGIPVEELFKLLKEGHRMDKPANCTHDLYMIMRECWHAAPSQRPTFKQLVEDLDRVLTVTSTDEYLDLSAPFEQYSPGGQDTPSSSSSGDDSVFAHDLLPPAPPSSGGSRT
# setupConditions: at 10 µM
Short version: residual activity at least 70% is true, less is false.

Asked: Record COc1cc2nccc(Oc3ccc(NC(=O)Nc4cc(C)on4)c(Cl)c3)c2cc1OC ; criterion: residual activity no lower than 70%. Met?
Given back: false

Asked: // next record NC(=O)Nc1sc(-c2ccc(F)cc2)cc1C(N)=O
Given back: false

Asked: What about O=C1Nc2ccc(Cl)cc2/C1=C/c1cc(Cl)c(O)c(Cl)c1 ?
Given back: false

Asked: Same read-out for O=C(Nc1ccc(Cl)cc1)c1ccccc1NCc1ccncc1 ?
Given back: true

Asked: Try this compound next: CCCCc1c(-c2ccc(OC)cc2)[nH]c2nccnc12
Given back: true

Asked: Then this compound: CC(C)c1nn(-c2c(Cl)cccc2Cl)c2nc(Cc3ccc(OCCO)cc3)[nH]c(=O)c12
Given back: true

Asked: Would you mind doing COc1cc2c(cc1OC)-c1n[nH]c(Nc3cccc(F)c3)c1C2 as well?
Given back: false

Asked: Entry to check: CSc1nc(-c2ccc(F)cc2)c(-c2ccnc(NC(C)c3ccccc3)c2)[nH]1 (stereo unspecified)
Given back: true

Asked: Also O=C1NC(=O)c2c1c1c3ccccc3[nH]c1n1cncc21 ?
Given back: false

Asked: COc1cc2ncnc(Nc3cccc(Cl)c3)c2cc1OC ?
Given back: true

Asked: // query: O=C1NC(=O)C(c2c[nH]c3ccccc23)=C1c1c[nH]c2ccccc12
Given back: false

---

# target: Interleukin-1 receptor-associated kinase 4 (Homo sapiens)
# Sequence (whole entry): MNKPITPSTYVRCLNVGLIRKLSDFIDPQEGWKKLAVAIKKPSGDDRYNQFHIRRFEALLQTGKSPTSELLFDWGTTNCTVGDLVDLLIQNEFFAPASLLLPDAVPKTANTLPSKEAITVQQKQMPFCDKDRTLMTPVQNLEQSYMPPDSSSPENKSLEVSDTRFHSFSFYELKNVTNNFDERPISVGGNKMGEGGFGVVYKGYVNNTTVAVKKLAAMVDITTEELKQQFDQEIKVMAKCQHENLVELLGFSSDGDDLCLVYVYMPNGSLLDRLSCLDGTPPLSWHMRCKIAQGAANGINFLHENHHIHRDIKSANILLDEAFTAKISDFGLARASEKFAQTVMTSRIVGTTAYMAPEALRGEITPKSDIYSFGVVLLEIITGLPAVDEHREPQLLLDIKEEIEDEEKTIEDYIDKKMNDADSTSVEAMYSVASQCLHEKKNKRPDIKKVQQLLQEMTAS
# setupConditions: at 1 µM
resultType: residual activity (%)
Numbers only here, please. The scale is %.

Asked: What value of residual activity has been reported for the following molecule? COc1ccc(-c2cnc3c(-c4ccsc4)cnn3c2)cc1
Given back: 124

Asked: Could you do the same for CC(C)c1nn(-c2c(Cl)cccc2Cl)c2nc(Cc3ccc(OCCO)cc3)[nH]c(=O)c12 , please?
Given back: 104

Asked: Now consider Cc1cc(C)c(/C=C2\C(=O)Nc3ccccc32)[nH]1 .
Given back: 39

Asked: Next record, please: CCCCc1c(-c2ccc(OC)cc2)[nH]c2nccnc12
Given back: 79

Asked: Similarly, O=C(c1cc2cc(O)ccc2[nH]1)c1cc2cc(O)ccc2[nH]1 ?
Given back: 50

---

# target: Ribosomal protein S6 kinase alpha-3 (Homo sapiens)
# setupConditions: at 10 µM
resultType: residual activity (%)
# unit: % | format: bare number

Asked: Field request: residual activity | item: COc1cc2nccc(Oc3ccc(NC(=S)NC(=O)c4ccccc4C)cc3)c2cc1OC
Given back: 19

Asked: Also O=C(Nc1nc2ccccc2n1CCN1CCOCC1)c1cccc([N+](=O)[O-])c1 ?
Given back: 83

Asked: # repeat for COc1cc2nccc(Oc3ccc(NC(=O)Nc4cc(C)on4)c(Cl)c3)c2cc1OC
Given back: 35

Asked: Moving on to the next molecule: Cn1c2ccccc2c2c3c(c4c5ccccc5n(CCC#N)c4c21)CNC3=O
Given back: 1

Asked: Next: N#Cc1c(NC(=O)c2cccc3ccccc23)sc2c1CCCC2
Given back: 51

---

# target: cGMP-dependent protein kinase 1 (Homo sapiens)
# Sequence (whole entry): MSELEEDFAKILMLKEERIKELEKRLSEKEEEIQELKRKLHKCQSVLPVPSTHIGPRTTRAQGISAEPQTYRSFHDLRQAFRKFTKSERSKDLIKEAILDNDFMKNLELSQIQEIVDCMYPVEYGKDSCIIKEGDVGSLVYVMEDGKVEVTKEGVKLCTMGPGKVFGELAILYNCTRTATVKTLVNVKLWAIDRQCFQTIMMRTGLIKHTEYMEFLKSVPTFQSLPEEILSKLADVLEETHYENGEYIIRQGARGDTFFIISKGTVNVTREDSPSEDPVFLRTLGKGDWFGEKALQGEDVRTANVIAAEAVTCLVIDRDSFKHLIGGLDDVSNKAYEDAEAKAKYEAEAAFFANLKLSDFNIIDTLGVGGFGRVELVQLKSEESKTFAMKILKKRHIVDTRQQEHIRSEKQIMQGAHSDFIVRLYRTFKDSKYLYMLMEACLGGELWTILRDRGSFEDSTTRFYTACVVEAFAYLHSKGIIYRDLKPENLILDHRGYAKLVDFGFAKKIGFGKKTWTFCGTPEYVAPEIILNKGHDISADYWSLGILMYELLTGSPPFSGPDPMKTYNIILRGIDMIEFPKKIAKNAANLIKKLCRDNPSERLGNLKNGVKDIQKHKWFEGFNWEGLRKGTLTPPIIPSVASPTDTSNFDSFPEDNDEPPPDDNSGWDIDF
# setupConditions: at 10 µM
resultType: residual activity (%)
Please give a number only; it is taken to be in %.

Asked: May I ask what residual activity has been recorded for O=S(=O)(c1cccc2cnccc12)N1CCCNCC1 ?
Given back: 17

Asked: For O=S(=O)(NCCNC/C=C/c1ccc(Br)cc1)c1cccc2cnccc12 then?
Given back: 4

Asked: Would you kindly repeat that for c1ccc(-c2cnc(Nc3ccc(OCCN4CCCC4)cc3)s2)cc1 ?
Given back: 136

Asked: Note, next up: O=C1NC(=O)C(c2c[nH]c3ccccc23)=C1c1c[nH]c2ccccc12
Given back: 43

Asked: Same question for O=C1C(Cl)=C(N2C(=O)CCC2=O)C(=O)c2ccccc21 please.
Given back: 96

Asked: Moving on to O=C1NC(=O)c2c1c1c3ccccc3[nH]c1n1cncc21
Given back: 89

Asked: Moving on to the next compound: O=C1Nc2ccccc2/C1=C\c1c(Cl)[nH]c2ccccc12
Given back: 84

Asked: Now the same for O=C(O)/C=C/c1cc(Br)c(Br)c(Br)c1Br
Given back: 65

Asked: What about this compound? O=C(NC(NC(=S)Nc1ccc(F)c([N+](=O)[O-])c1)C(Cl)(Cl)Cl)C(c1ccccc1)c1ccccc1 (configuration not stated)
Given back: 92

Asked: Param item: O=C1Cc2c([nH]c3ccc(Br)cc23)-c2ccccc2N1
Given back: 97

Asked: Same again, this time with COc1cc2nccc(Oc3ccc(NC(=O)Nc4cc(C)on4)c(Cl)c3)c2cc1OC
Given back: 97

Asked: Same question, O=C(CCCc1ccc(-c2ccccc2F)cc1)Nc1ccc(O)cc1 this time
Given back: 100

Asked: O=C(Nc1nc2ccccc2n1CCN1CCOCC1)c1cccc([N+](=O)[O-])c1 , same question.
Given back: 101

Asked: And the next one, CCCCc1c(-c2ccc(OC)cc2)[nH]c2nccnc12 ?
Given back: 116

Asked: Now this one: Nc1n[nH]c2nc3ccccc3nc12
Given back: 88

Asked: Now consider O=C1Nc2ccc(Cl)cc2/C1=C/c1cc(Cl)c(O)c(Cl)c1 .
Given back: 79

Asked: Cc1cc(C)c(/C=C2\C(=O)Nc3ccccc32)[nH]1 , same question.
Given back: 103

Asked: // next record COc1ccc(-c2cnc3c(-c4ccsc4)cnn3c2)cc1
Given back: 90

Asked: What would you report for CC(C)(C)c1nc2c3ccc(F)cc3c3c(=O)[nH]ccc3c2[nH]1 ?
Given back: 45

Asked: Would you kindly repeat that for Nc1ncnc2c1c(-c1ccc(Oc3ccccc3)cc1)cn2C1CCCC1 ?
Given back: 96

Asked: Nc1ncnc2[nH]nc(Nc3ccc(F)cc3)c12 ?
Given back: 79

Asked: Please answer likewise for CCCC(=O)Oc1ccc2[nH]c(C(=O)c3cc4ccccc4[nH]3)cc2c1
Given back: 127

---

# target: Serine/threonine-protein kinase PAK 5 (Homo sapiens) (UniProt Q9P286)
# Sequence (Q9P286 whole entry, looked up): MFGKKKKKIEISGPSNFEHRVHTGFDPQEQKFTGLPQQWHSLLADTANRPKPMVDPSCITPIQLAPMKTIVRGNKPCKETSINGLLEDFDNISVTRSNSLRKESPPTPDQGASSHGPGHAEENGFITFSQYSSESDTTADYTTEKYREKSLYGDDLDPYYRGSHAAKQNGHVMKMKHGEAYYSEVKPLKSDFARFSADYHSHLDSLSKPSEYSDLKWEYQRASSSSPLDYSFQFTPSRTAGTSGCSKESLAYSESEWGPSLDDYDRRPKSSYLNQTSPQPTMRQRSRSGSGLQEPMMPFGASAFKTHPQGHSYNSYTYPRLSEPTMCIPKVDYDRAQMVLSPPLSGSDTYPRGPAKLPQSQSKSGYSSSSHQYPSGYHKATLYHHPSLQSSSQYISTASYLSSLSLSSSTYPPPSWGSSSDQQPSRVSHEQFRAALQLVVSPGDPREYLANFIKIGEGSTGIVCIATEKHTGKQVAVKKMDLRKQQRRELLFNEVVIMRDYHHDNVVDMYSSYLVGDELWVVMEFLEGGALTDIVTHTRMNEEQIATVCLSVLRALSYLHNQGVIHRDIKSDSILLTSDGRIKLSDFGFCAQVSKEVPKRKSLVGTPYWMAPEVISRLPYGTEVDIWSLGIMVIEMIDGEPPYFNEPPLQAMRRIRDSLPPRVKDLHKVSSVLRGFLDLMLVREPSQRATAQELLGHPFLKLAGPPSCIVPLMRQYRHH
# setupConditions: at 10 µM
Threshold check on residual activity: strictly below 60% is Satisfied; on or above 60% is Not satisfied.

Asked: I wonder whether O=C1Cc2c([nH]c3ccc([N+](=O)[O-])cc23)-c2ccccc2N1 has residual activity below 60%. Can you tell?
Given back: Satisfied

Asked: Can you handle O=C(c1ccccc1)c1ccc(N2CCOCC2)cc1O next?
Given back: Not satisfied

Asked: One more molecule: CCN1/C(=C/C(C)=O)Sc2ccc(OC)cc21
Given back: Not satisfied

Asked: Please answer likewise for COc1ccc(Cl)cc1NC(=O)Nc1cc(C)nc2ccccc12
Given back: Not satisfied

Asked: What would you report for CCCCc1c(-c2ccc(OC)cc2)[nH]c2nccnc12 ?
Given back: Not satisfied

Asked: What about CC(C)[C@H](CO)Nc1nc(Nc2cc(N)cc(Cl)c2)c2ncn(C(C)C)c2n1 ?
Given back: Satisfied
